# experiment-description: yeast display, Sf9 membrane polyspecificity reagent, FACS + sequencing; frameworks hold sequencing errors
reported-property: polyreactivity (PSR sort gate)

INSERT INTO measurements (sequence_content, reported_property, result) VALUES
  ('QVQLVESVGGLVQAVGSLRLSCAASGFTFSDYAMGWYRHAPGKERELVAAISTRCSSTYYADSVKGRFTISRDIAKNNVYLQMNSLKPEDTAVYYCNAVGSYSGYYYWGQGTQVTVSS', 'polyreactivity (PSR sort gate)', 'high polyreactivity'),
  ('QVQLVESGGGLVQAGGSLRLSCAASGNTFYWYVMGWYRQAPGKERELVARITSSGGSTNYADSVKGRFTISRDNAKNTVYLQMNSLKPEDTAVYYCAADDIYLYGGGTDYYFWGQGTQVTVSS', 'polyreactivity (PSR sort gate)', 'low polyreactivity'),
  ('QVQLVESGGGLVQAGGSLRLSCAASGRTFNWYAMGWYRQAPGKESELVAAISSRGGSTYADSVKGRFTISRDNAKNTVYLQMNSLTPEDTAVYYCNADLLPADAPLWVTGGDYWGQGTQVTVSW', 'polyreactivity (PSR sort gate)', 'low polyreactivity'),
  ('QVQLVESGGGLVQAGGSLRLSCAASGFIFITVNAMGWYRQAPGKEREFVAAITRSGTGTYYADSVKGRFTISRDNAKNTVYLQMNSLKPEDTAVYYCAADATSTGAYDYWGQGTQVTVSS', 'polyreactivity (PSR sort gate)', 'low polyreactivity'),
  ('QVQLVESGGGFVQAGGSLRLSSAASGINFYRKTMGWYRQAPGKERELVASISRGGSTYYADSVKGRFTISRDNAKNTVYLQMNILKPEDTAVYYCSTSGQQYYSRNFDYWGQGTQVTVSS', 'polyreactivity (PSR sort gate)', 'low polyreactivity'),
  ('QVQLVESGGGLVQAGGSLRLSCAASGSIFGANAMGLYRQAPGKERELLATITLRDGSTYYADSVKGRFTISRDNAKNTVYLQRNSLKPEDTAVYYCATYYSAINYGCSKTILYDYWGQGTQVTVSS', 'polyreactivity (PSR sort gate)', 'low polyreactivity'),
  ('QVQLVESAGGLVQAGGSLRLSCAASGLIFARNSMGWYRQAPGKERELVAAISKRGGSTFYADSVKGRFTISRDNAKNTVYLQMNSLKPVDTAVYYWNARSSETWHGDYWGQGTQVTVSS', 'polyreactivity (PSR sort gate)', 'high polyreactivity'),
  ('QVQLVESGGGLVQAGGSLRLSCAGSGRTFEINAMGWYRQAPGKERELVAAITVSGGSTYYADSVKGRFTISRDNAKNTVYLQMNSLKPEDTAVYYCAVEIVYGQGKEVNSWGQGTQVTVSS', 'polyreactivity (PSR sort gate)', 'low polyreactivity');

Please give the measured polyreactivity (PSR sort gate) for this sequence: QVQLVESGGGLVQAGGSLRLTCAASGRTFAGNAMGWYRQAPGKERELVAAIRRTGGRTYYADSVKGRFTISRDNAKNSVYLQRNSLKPEDTAVYYCYAVNKPYTREYGYDYWGKGTQVTVSS
high polyreactivity

Another sequence to look at: QVQLVESGGGLVQAGGSLRLSCAASGSTFEYYAMGWYRQAPGKERELVATITLIAGSTYADSVKGRFTISRDNAKNTVYLQMNSLKPEDTAVYYCAADDGGYESPEFVYGGRGDYWGQGTQVTVSS
low polyreactivity

Queued: QVQLEESGGGLVQAGGSLRLTCAASGLIFHDYAMGWYRQATGTEMELVAAISWSDGTTYYADSVKGRFTISRDNAKITVYLQMNSLKPEDTAVYYCAAEEVSGWEYDFWGQGTQVTVSS
high polyreactivity
